B1: r16_88_TrROS_Hall (parent)
chain: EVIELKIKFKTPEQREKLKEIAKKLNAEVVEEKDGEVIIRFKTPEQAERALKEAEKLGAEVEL

Variants of: B1
protocol-summary: folding stability dG (cDNA display proteolysis); higher = more stable
condition-parameters: PBS, room temperature
endpoint: folding stability dG (kcal/mol)
One number for each entry, in kcal/mol.

Solved entries (count: 4):
1) EVIELKIKFKTPEQREKLKEIAKKLNAEVVEEKDGEVIIRFKTPEQAERALKEADKLGAEVEL [E55D]
4.27
2) EVIELKIKFKTPEQREKLKEIAKKLNAEVVEEKDGEVIIRFKTPEQAERALKNAEKLGAEVEL [E53N]
3.87
3) EVIELKIKFKTPEQREKLKEIAKKLNAEVVEEKDGEVIIRFKTPEQAERALKEAEKLGAELEL [V61L]
4.28
4) EVIELKIKFKTPEQREKLKEIARKLNAEVVEEKDGEVIIRFKTPEQAERALKEAEKLGAEVEL [K23R]
4.48

Switching to the query record.
The measured folding stability dG associated with EVIELKIKFKTPEQREKLKEIAKKLNAEVVEEKDGEVIIRFKTPEQAKRALKEAEKLGAEVEL [E48K] reads 4.67
